Target: Urease (Canavalia ensiformis)
Assay: Inhibition of jack bean urease assessed as ammonia production after 15 mins by indophenol method
recorded-metric: IC50
Answers without a unit are incomplete; give the number and then its unit.

Cc1cccc(C)c1-n1c(-c2cccc(Cl)c2)n[nH]c1=S ... 357 µM

Ask: Need IC50, item Cc1ccc(-n2c(-c3cccc([N+](=O)[O-])c3)n[nH]c2=S)c(C)c1
Reply: 45.6 µM

Ask: Need IC50, item Cc1cccc(C)c1Nc1nnc(-c2ccc(Cl)cc2)s1
Reply: 215 µM

Ask: Need IC50, item Cc1cccc(Nc2nnc(-c3ccc(Cl)cc3)s2)c1C
Reply: 484 µM

====

Target: Urease (Canavalia ensiformis)
Assay: Inhibition of jack bean urease assessed as ammonia production after 15 mins by indophenol method
Set-up: concentration or dose not given beside the values
recorded-metric: inhibition (%)
Could you give me the number in %? Just the number is fine.

Some solved entries appear below for comparison.
Cc1cccc(-n2c(-c3ccc(Cl)cc3)n[nH]c2=S)c1C ... 48.3
Cc1ccc(-n2c(-c3cccc(Cl)c3)n[nH]c2=S)c(C)c1 ... 53.1
Cc1cccc(C)c1Nc1nnc(-c2ccc(Cl)cc2)s1 ... 91.1
Cc1cccc(C)c1-n1c(-c2cccc(Cl)c2)n[nH]c1=S ... 64.8

Ask: Need inhibition, item Cc1ccc(-c2n[nH]c(=S)n2-c2c(C)cccc2C)cc1
Reply: 6.8

Ask: Need inhibition, item Cc1cccc(Nc2nnc(-c3ccccc3)s2)c1C
Reply: 56.8

Ask: Need inhibition, item Cc1ccccc1-c1n[nH]c(=S)n1-c1cccc(C)c1C
Reply: 43.4

====

Test system: Radical scavenging activity
Assay: Antioxidant activity assessed as DPPH free radical scavenging activity in cell-free system after 30 mins
Type: functional
The reader will find reported IC50 values listed item by item below.
Could you give me the number in µM? Just the number is fine.

Some solved entries appear below for comparison.
Cc1cccc(C)c1Nc1nnc(-c2ccc(Cl)cc2)s1 ... 320
CCCOC(=O)c1cc(O)c(O)c(O)c1 [PROPYL GALLATE] ... 30.5
Cc1ccc(-n2c(-c3ccc(Cl)cc3)n[nH]c2=S)c(C)c1 ... 292

Proceeding to the next molecule to report its IC50.
Ask: Which IC50 is reported with Radical scavenging activity for this entry: Cc1ccc(-n2c(-c3cccc([N+](=O)[O-])c3)n[nH]c2=S)c(C)c1 ?
Reply: 242

====

Molecular target: Urease (Canavalia ensiformis, UniProt P07374)
Sequence (P07374 whole entry): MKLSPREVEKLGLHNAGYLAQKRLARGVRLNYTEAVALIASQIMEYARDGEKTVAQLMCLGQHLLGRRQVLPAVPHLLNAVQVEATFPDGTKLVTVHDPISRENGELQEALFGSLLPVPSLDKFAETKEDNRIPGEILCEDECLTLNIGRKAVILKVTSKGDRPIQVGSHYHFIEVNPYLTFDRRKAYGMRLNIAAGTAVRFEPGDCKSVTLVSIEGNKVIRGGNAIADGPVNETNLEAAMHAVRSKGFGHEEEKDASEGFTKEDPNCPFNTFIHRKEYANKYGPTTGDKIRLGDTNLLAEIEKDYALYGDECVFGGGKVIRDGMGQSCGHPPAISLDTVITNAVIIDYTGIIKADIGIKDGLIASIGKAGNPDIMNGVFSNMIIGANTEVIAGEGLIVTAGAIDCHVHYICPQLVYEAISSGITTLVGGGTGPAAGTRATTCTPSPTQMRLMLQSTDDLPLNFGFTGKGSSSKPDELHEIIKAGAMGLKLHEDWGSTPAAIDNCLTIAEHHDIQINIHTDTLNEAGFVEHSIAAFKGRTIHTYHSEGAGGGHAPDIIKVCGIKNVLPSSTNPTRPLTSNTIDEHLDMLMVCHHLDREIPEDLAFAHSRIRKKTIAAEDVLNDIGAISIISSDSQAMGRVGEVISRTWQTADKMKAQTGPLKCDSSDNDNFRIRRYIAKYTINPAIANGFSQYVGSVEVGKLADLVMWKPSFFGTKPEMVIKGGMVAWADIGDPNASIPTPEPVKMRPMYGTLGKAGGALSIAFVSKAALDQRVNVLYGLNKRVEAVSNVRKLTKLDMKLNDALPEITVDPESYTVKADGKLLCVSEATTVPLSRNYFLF
Experiment: Inhibition of jack bean urease assessed as ammonia production after 15 mins by indophenol method
Values of IC50 strictly less than 300 µM map to YES, and values of at least 300 µM map to NO.

Sample answers from the record:
Cc1ccc(-n2c(-c3cccc(Cl)c3)n[nH]c2=S)c(C)c1 ... NO
Cc1cccc(-n2c(-c3ccccc3)n[nH]c2=S)c1C ... YES
Cc1ccc(-n2c(-c3ccc(Cl)cc3)n[nH]c2=S)c(C)c1 ... YES

Ask: Criterion: IC50 strictly below 300 µM. Is it met by Cc1cccc(C)c1Nc1nnc(-c2ccccc2Cl)s1 ?
Reply: NO

Ask: Criterion: IC50 strictly below 300 µM. Is it met by Cc1ccc(Nc2nnc(-c3cccc([N+](=O)[O-])c3)s2)c(C)c1 ?
Reply: NO

Ask: Criterion: IC50 strictly below 300 µM. Is it met by Cc1cccc(Nc2nnc(-c3ccccc3)s2)c1C ?
Reply: NO

====

The reader will find reported inhibition values listed item by item below.
Target: Urease (Canavalia ensiformis)
Test: Inhibition of jack bean urease assessed as ammonia production after 15 mins by indophenol method
Set-up: concentration or dose not given beside the values
Could you give me the number in %? Just the number is fine.

Some solved entries appear below for comparison.
Cc1cccc(-n2c(-c3ccccc3)n[nH]c2=S)c1C ... 93.4
Cc1cccc(C)c1-n1c(-c2ccccc2Cl)n[nH]c1=S ... 48.3
Cc1ccc(-n2c(-c3ccc(Cl)cc3)n[nH]c2=S)c(C)c1 ... 88.6
Cc1ccc(-n2c(-c3cccc([N+](=O)[O-])c3)n[nH]c2=S)c(C)c1 ... 97

Ask: Need inhibition, item Cc1ccc(Nc2nnc(-c3ccc([N+](=O)[O-])cc3)s2)c(C)c1
Reply: 7.2

Ask: Need inhibition, item Cc1ccc(-c2nnc(Nc3c(C)cccc3C)s2)cc1
Reply: 27.1

====

Biological target: Urease (Canavalia ensiformis) (UniProt P07374)
Assay: Inhibition of jack bean urease assessed as ammonia production after 15 mins by indophenol method
Parameters: concentration or dose not given beside the values
Decide using inhibition: a value greater than or equal to 50% is class 1, a smaller one is class 0.

Ask: Hello, I need to know if Cc1cccc(C)c1Nc1nnc(-c2ccccc2Cl)s1 has measured inhibition not below 50%. Thanks!
Reply: class 1

Ask: Hello, I need to know if Cc1ccc(Nc2nnc(-c3cccc(Cl)c3)s2)c(C)c1 has measured inhibition not below 50%. Thanks!
Reply: class 0

====

The reader will find reported inhibition values listed item by item below.
Biological target: Urease (Canavalia ensiformis) (UniProt P07374)
Test: Inhibition of jack bean urease assessed as ammonia production after 15 mins by indophenol method
Set-up: concentration or dose not given beside the values
Could you give me the number in %? Just the number is fine.

Cc1cccc(Nc2nnc(-c3ccc(Cl)cc3)s2)c1C ... 52.8
Cc1cccc(C)c1-n1c(-c2ccc(Cl)cc2)n[nH]c1=S ... 7.5

Ask: Need inhibition, item Cc1ccc(Nc2nnc(-c3cccc([N+](=O)[O-])c3)s2)c(C)c1
Reply: 73.4
